Biological target: recombinant human S1P1 receptor (Homo sapiens, UniProt P21453)
Sequence (P21453 whole entry): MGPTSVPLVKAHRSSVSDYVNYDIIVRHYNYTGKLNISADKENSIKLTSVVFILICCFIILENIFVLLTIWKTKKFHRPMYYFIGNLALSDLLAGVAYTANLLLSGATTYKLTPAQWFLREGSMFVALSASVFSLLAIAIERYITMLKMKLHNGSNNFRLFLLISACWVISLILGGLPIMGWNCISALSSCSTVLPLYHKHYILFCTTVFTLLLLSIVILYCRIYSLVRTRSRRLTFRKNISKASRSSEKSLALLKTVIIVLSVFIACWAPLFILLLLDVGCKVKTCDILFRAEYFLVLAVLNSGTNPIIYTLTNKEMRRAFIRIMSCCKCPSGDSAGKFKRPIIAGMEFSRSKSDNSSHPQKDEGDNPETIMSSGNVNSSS
Assay: GTPγS assay to determine EC50 values
Settings: 35S-GTPγS binding, membrane preparations of CHO cells expressing recombinant human S1P1 receptor
Method: GTPγS binding assays are performed in 96 well microtiter plates (Nunc, 442587) in a final volume of 200 μl, using membrane preparations of CHO cells expressing recombinant human S1P1 receptor. […] Membrane-bound ^35S-GTPγS is measured with a TopCount from Packard Biosciences. […] The EC50 value was determined according to the method described above.
Assay metric: EC50 (nM)

# Compound, Assay metric, Uom, Observed
data = [
    ("CCc1cc(CCC(=O)c2sc(C(F)(F)F)c3c2CCC(C)(C)C3)cc(C)c1CCC(=O)O [Example 4]", "EC50", "nM", 4),
]
